biological target: HEK293 cells expressing NR1/NR2B (Homo sapiens (Human)); assay: NR2B NAM Assay (FDSS Ca2+ influx cell assay); format: cell-based; settings: Ca2+ influx inhibition relative to MK801; 3 μM glutamate, 3 μM glycine, 1 mM Ca2+; read-out: NR2B NAM IC50
Sequence (Q13224 27-1484, other chains not shown): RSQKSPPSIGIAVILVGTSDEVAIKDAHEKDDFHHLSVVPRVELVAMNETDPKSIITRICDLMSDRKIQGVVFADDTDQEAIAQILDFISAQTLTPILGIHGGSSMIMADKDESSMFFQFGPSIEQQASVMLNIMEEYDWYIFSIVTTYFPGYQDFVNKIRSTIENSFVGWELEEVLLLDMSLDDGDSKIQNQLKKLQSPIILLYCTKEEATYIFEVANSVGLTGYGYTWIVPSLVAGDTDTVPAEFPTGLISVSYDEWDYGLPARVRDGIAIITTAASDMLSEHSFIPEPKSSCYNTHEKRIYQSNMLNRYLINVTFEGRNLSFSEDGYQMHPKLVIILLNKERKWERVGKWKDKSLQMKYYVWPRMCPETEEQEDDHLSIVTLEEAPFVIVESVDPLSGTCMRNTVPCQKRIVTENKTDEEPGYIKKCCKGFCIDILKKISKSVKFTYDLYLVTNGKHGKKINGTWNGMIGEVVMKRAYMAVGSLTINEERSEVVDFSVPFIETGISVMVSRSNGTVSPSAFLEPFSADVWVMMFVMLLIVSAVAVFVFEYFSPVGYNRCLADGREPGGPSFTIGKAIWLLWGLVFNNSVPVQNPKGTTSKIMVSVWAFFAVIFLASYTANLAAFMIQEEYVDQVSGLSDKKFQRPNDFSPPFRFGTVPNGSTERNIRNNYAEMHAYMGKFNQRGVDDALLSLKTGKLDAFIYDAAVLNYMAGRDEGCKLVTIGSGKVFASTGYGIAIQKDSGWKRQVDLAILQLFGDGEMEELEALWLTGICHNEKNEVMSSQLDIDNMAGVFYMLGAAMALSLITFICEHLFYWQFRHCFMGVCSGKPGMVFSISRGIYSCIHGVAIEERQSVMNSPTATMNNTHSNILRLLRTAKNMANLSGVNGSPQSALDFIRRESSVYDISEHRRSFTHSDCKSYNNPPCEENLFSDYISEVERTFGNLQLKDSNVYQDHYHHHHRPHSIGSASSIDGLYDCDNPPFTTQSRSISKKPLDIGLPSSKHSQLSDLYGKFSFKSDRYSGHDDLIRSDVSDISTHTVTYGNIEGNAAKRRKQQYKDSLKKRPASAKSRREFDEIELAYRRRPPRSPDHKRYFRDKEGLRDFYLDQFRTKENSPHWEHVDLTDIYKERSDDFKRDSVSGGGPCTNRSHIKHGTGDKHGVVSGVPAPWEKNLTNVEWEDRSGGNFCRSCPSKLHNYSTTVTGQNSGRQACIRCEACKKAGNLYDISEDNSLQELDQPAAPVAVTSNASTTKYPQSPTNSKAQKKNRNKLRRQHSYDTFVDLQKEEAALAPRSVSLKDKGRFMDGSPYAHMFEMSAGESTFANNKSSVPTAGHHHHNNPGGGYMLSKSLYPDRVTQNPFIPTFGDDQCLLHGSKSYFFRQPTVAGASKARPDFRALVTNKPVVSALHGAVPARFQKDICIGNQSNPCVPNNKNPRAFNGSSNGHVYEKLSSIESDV
pIC50: −log10 of the molar value.
assay.metric: pIC50

• OC(CN1C[C@H]2C[C@H](Oc3ccc(F)cc3)C[C@H]2C1)c1cn[nH]c1 (some centres unmarked) [drawing 268] = 5.70
• O=C(CN1C[C@H]2C[C@H](Oc3c(F)cccc3F)C[C@H]2C1)c1ccc(O)cc1 = 7.53
• O=S(=O)(c1ccccc1)[C@H]1C[C@@H]2CN(CC(O)c3ccc(O)c(F)c3)C[C@@H]2C1 (some centres unmarked) = 5.00
• COC(CN1C[C@H]2C[C@H](Oc3ccc(F)cc3)C[C@H]2C1)c1ccc(O)cc1 (some centres unmarked) = 6.86
• Oc1ccc(C(O)CN2C[C@H]3C[C@H](Oc4cncc(Cl)c4)C[C@H]3C2)cc1 (some centres unmarked) = 6.31
• O=C(CN1C[C@H]2C[C@H](Oc3cccnc3F)C[C@H]2C1)c1ccc(O)c(F)c1 = 5.00
• COc1ccc(O[C@@H]2C[C@@H]3CN(CC(O)c4ccc(O)cc4)C[C@@H]3C2)cc1 (some centres unmarked) = 6.95
• Oc1ccc(C(O)CN2C[C@H]3C[C@@H](Oc4ccc(F)c(F)c4)C[C@H]3C2)cc1 (some centres unmarked) = 7.09
